Origin of measurements: patent US7034026B2

# Test system: PKC (mix of isoforms)
# Assay Procedure: PKC assay (counter screen)
# Format: biochemical
# Experimental Parameters: myelin basic protein substrate, 10 μM ATP; read-out: Counter screens IC50 (μM) PKC
Quantity Measured: IC50

Record Nc1ccc(-c2nc3ccccc3nc2-c2ccc(N)cc2)cc1 . Reported IC50: > 80 µM

The compound listed as CC(C)(N)c1ccc(-c2nc3ccccc3nc2-c2ccccc2)cc1 shows IC50 equal to > 80 µM
